The reported measurements were obtained from patent US11965039B2.

molecular target: Human C3 (Complement tech cat #A113c) (human, UniProt P01024 23-1663); test: cell-based or functional assay
Sequence (P01024 23-1663 limits assumed): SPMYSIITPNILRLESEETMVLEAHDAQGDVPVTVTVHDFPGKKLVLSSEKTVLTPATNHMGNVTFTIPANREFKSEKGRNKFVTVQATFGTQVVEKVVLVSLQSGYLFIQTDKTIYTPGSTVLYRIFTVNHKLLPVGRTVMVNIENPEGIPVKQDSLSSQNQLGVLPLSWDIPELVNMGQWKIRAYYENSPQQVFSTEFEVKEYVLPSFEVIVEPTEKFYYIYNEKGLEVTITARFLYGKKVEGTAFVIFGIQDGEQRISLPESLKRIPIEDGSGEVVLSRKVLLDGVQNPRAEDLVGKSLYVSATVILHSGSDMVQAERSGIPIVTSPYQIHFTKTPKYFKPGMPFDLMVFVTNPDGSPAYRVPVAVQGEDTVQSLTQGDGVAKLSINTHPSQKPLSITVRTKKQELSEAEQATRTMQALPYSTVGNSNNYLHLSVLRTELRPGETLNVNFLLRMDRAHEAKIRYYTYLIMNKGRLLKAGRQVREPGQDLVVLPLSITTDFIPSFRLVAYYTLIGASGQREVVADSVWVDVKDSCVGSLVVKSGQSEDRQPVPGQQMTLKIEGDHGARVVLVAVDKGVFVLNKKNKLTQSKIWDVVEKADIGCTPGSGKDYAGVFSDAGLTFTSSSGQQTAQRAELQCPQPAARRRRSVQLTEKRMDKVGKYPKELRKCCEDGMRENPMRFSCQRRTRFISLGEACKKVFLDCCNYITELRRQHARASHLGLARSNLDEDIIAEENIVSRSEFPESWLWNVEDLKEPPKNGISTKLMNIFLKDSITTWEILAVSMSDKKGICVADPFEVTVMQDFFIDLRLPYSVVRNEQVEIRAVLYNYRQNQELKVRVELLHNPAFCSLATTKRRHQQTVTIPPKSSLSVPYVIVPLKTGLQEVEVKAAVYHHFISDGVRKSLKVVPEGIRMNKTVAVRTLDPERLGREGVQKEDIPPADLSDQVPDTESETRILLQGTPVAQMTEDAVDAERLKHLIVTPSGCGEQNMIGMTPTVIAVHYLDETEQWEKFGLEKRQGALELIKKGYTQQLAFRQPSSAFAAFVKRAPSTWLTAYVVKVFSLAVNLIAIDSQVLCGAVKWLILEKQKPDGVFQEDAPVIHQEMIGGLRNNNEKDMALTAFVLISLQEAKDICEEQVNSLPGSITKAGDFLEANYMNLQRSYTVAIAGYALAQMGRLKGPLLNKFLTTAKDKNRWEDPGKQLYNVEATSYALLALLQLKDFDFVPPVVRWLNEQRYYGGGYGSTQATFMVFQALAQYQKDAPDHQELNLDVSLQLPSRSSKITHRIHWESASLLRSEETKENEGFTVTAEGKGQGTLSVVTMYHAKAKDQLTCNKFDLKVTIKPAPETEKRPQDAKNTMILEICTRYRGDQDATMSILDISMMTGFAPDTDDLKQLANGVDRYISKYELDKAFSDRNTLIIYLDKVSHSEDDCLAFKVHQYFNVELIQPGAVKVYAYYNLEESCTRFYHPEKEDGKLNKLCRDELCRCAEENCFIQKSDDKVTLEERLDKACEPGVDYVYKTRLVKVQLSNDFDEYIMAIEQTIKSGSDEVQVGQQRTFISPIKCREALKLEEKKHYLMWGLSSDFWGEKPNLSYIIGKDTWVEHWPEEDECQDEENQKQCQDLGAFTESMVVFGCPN
Positions of bridges follow the written chain, without caps; N, C: chain ends.
Attribute measured: inhibition of hemolysis IC50

For Ac-ESSAICIWQDWGEHRCT-NH2 (disulfide 6-16; SMILES CC[C@H](C)[C@H](NC(=O)[C@H](C)NC(=O)[C@H](CO)NC(=O)[C@H](CO)NC(=O)[C@H](CCC(=O)O)NC(C)=O)C(=O)N[C@H]1CSSC[C@@H](C(=O)N[C@H](C(N)=O)[C@@H](C)O)NC(=O)[C@H](CCCNC(=N)N)NC(=O)[C@H](Cc2c[nH]cn2)NC(=O)[C@H](CCC(=O)O)NC(=O)CNC(=O)[C@H](Cc2c[nH]c3ccccc23)NC(=O)[C@H](CC(=O)O)NC(=O)[C@H](CCC(N)=O)NC(=O)[C@H](Cc2c[nH]c3ccccc23)NC(=O)[C@H]([C@@H](C)CC)NC1=O) [Compound 3] , what is its reported inhibition of hemolysis IC50?
< 100 nM
